Experiment: Toxicity (LD50)
Conditions: in vivo, iv
OBSERVATION_TYPE: LD50

[in] Quick one: LD50 for Cn1nc(O)c(=O)nc1SCC1=C(C(=O)O)N2C(=O)[C@@H](NC(=O)/C(=N\OC(C)(C)C(=O)O)c3csc(N)n3)[C@H]2SC1 ?
[out] > 1000 mg/kg

###

Test: Toxicity (LD50)
Settings: in vivo, po
OBSERVATION_TYPE: LD50

[in] Quick one: LD50 for Cn1nc(O)c(=O)nc1SCC1=C(C(=O)O)N2C(=O)[C@@H](NC(=O)/C(=N\OC(C)(C)C(=O)O)c3csc(N)n3)[C@H]2SC1 [Example 1] ?
[out] > 4000 mg/kg

###

Assay: Toxicity (LD50)
Conditions: in vivo, sc
OBSERVATION_TYPE: LD50

[in] Quick one: LD50 for Cn1nc(O)c(=O)nc1SCC1=C(C(=O)O)N2C(=O)[C@@H](NC(=O)/C(=N\OC(C)(C)C(=O)O)c3csc(N)n3)[C@H]2SC1 [Example 1] ?
[out] > 4000 mg/kg

src = patent US4431804A
